- test_description: yeast display, Sf9 membrane polyspecificity reagent, FACS + sequencing; frameworks hold sequencing errors
value_kind: polyreactivity (PSR sort gate)

Some entries whose results are on file:
QVQLVESGGGLVQAGGSLRLSCAASGFIFYKYAMGWYRQAPGKERELVARISISGGRTYYADSVKGRFPISRDNAKNTVYLQMNSLKPEDTAVYYCATSPWWYGYAAYGMDYWGQGTQVTVSS ... low polyreactivity
QVQLVESGGGLVQAGGSLRLSCAASGSTFTDNGMVWYRQAPGKARELVAGISYSGGSTYYADSVKGRFRISRDNAKNTVYLQMNSLKPEDTAVYYCAADRGGYYLSEYDYWGQVTQVTVSS ... low polyreactivity
QVQLVESGGGLVQAGGSLRLSCAASGSTLRRYAMGWYRQAPGKERELVAAISGTGSRTYYADSVKGRFSISRDNATNTVYLHMISLKREDTAVYYCNASPYGLTENDYWGQGTQVTVSS ... high polyreactivity
QVQLVESGGGLVQAGGSLRLSCAASGSIFASYAMGWYRQAPGKERELVAAITYSGSRTYYADSVKGRFTISRDTAKNTVYLQMNSLKPEDTAVYYCNADYYWYPYEDDYWGQGTQETVSS ... low polyreactivity
QVQLVESGGGLVQAGGSLRLSCAASGRTFYIYAMGWYRQAPGKERELVAAITRIDGSTYYADSVKGRFTISRDNAKNTVYLQMNSLKPEDTAVYYCAAEYGPGLTEGLYYYWGQGTQVTVSS ... high polyreactivity
QVQLVESGGGLVQAGGSLRLTCAASGFTFTGNAMGWYRQAPGKEREFVAAISWSGGSTYYADSVKGRFTISRDNAKNTVYLQMNSLKPEDTAVYYCNKYRPYGRIYHLAYGRDYWGQGTQVTVSS ... high polyreactivity
QVQLVESGGGLVQAGGSLRLSCAASGSIFEPYVMGWYRQAPGKERELVAAIRQTGGSTYYADSVKGRFTISRDNAKNTVYLQMNSLKPEDTAVYYCAAVYLYYSRSDLYDYWGQGTQVTVSS ... low polyreactivity
QVQLVESGGGLVQAGGSLRLSCAASGSTFSSYAMGWYRQAPGKERELVARITSGGSTYYADSVKGRFTISRDNAKNTVYSQMNSLKPEDTAVYYCAARGYYYRSRVSQFKYDYWGQGTQVTVSS ... high polyreactivity

Reported polyreactivity (PSR sort gate) for `QVQLEDSGGGLVQAGGSLRLSCAASGRTFNKYAMGWYRQAPGKERELVAAINTSGGSTYYADSVKGRFTISRDNAKNTVYLQMNSLKPEDTAVYYCAAQSRSVYGRSYGYWGQGTQVTVSS` : what is it?
high polyreactivity

Now the sequence `QVQLVESGGGLVQAGGSLRLSCAASGRISYAYAMGRYRQAPGKERELVAAISGSGGSTYYADSVKWRFTISRDNAKNTVYFQMNTLKPEDTAVYYCAAGSGEYYGGKRYYWGQGTQVTVSS`
low polyreactivity

Similarly, `QVQLVESGGGLVQAGGSLSLSCAASGITFNIYVMGWYRQAPGKERELVAAITDSGGTTYYADSVKGRFTISRDNAKNTVYLQMNSLKPEDTAVYYCAAEPFYSWWWWGDYWGQGTQVTVSS` ?
high polyreactivity

Do the same for `QVQLVESGGGLVQAGGSLRLSCAASGRIFSTNAMGWYRPAPGKERELVAAINWSTGSYVLRRSVKGRFTISRDTAKNTVYLQMNSLKPEDTAVYYCAATWRNPGKATQRYYYWGQGTQVTVSS` please
high polyreactivity

Also `QVQLVESGGGLVQAGGSLRLSCAASGRIFDLNAMGWYSQAPGKERELVAAITTNDGDTYYADSVKGRFTISRDTAKNTVYLQMNSLKPEDTAVYYCAAVSGSTSEYEYWGQGTEVTVSS` ?
low polyreactivity

Also need `QVQLVESGGGLVQAGGSLRISCAASGRIFIWYDMGWYRQAPGKERELVAAITQSDDITYYADSVKGRFTISRDNAKNTVYLQMNSLKPEDTAVYYCAARVLETSTPYGYWGQGTQVTVSS` , thanks.
low polyreactivity
